Biological target: Human 5-HT1A serotonin receptors (Homo sapiens, UniProt P08908)
Construct: expressed in transfected cells; host or cells: HEK293-EBNA
Sequence (P08908 1-422): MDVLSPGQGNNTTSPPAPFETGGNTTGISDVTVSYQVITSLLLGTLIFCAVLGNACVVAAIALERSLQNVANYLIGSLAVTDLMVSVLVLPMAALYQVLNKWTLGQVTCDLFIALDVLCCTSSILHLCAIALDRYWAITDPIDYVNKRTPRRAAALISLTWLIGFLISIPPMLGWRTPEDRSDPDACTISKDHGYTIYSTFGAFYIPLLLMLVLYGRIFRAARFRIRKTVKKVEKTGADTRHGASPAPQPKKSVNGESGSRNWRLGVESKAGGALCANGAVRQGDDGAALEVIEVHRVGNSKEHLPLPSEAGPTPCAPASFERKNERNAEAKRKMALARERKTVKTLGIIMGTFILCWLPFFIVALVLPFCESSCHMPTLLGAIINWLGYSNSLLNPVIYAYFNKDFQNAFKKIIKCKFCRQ
Experiment: Radioligand binding assay at human cloned 5-HT1A receptor ([3H]-8-OH-DPAT)
Conditions: compound at 10−7M
observation-type: 5-HT1A (% displacement of radioligand at 10−7M conc.) (%)

Illustrative cases are given below, each with its answer.
compound	numeric-result
COc1ccc(-c2ccccc2N2CCN(CCCCCC(=O)NCc3ccccn3)CC2)cc1	37
COc1ccc(OCC(O)CN2CCN(c3ncccc3-c3ccncc3)CC2)cc1 (stereo not shown)	26
COc1ccc(CNC(=O)CCCCCN2CCN(c3ncccc3-c3ccccn3)CC2)cc1	31

I. COc1cccc(OCCN2CCN(c3ncccc3-c3ccccn3)CC2)c1
II. FCCOc1ccc(OCCN2CCN(c3ncccc3-c3ccccn3)CC2)cc1
Which entry has a larger number for 5-HT1A (% displacement of radioligand at 10−7M conc.), I or II ? To answer, give the label that identifies your chosen option.
I
(I: 35%, II: 20%)

1. COc1ccc(OCC(O)CN2CCN(c3ccccc3-c3ccccc3)CC2)cc1 (stereo not shown)
2. COc1cccc(C(F)CN2CCN(c3ncccc3-c3ccccn3)CC2)c1 (stereo not shown)
Which entry has a larger number for 5-HT1A (% displacement of radioligand at 10−7M conc.), 1 or 2 ? To answer, give the label that identifies your chosen option.
1
(1: 46%, 2: 25%)
